B1: ALKBH7 (parent)
chain: SVICRSLPEGMGPGESGQPPPAC

Variants of: B1
EXPERIMENT SUMMARY: protein stability index of a GFP-peptide fusion (GPS, HEK-293T) (PSI 1-6); higher = more stable;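 further: lentivirally expressed fusions sorted by FACS into six bins by GFP to DsRed ratio, PSI derived from sequencing read proportions per bin multiplied by bin number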
PARTICULARS: c terminus: native
PARAMETER MEASURED: protein stability index

- INPUT SEQUENCE: "SVICRSLPEGMGPGESGNPPPAC [Q18N]"
  REPORTED: 2.05
- INPUT SEQUENCE: "SVICRSLPEGMGPGESGQPPPCC [A22C]"
  REPORTED: 4.31
- INPUT SEQUENCE: "SVICRSLPDGMGPGESGQPPPAC [E9D]"
  REPORTED: 2.97
- INPUT SEQUENCE: "SVICRSLPECMGPGESGQPPPAC [G10C]"
  REPORTED: 1.95
- INPUT SEQUENCE: "SVICRSLAEGMGPGESGQPPPAC [P8A]"
  REPORTED: 2.08
- INPUT SEQUENCE: "SVICRSLPEGMEPGESGQPPPAC [G12E]"
  REPORTED: 2.85
- INPUT SEQUENCE: "SVICRSLPEGMGPGESGQPPPAV [C23V]"
  REPORTED: 4.54
- INPUT SEQUENCE: "SVICRSLPEGMGPGEPGQPPPAC [S16P]"
  REPORTED: 2.07
- INPUT SEQUENCE: "SVICRSLPEGMGPGESDQPPPAC [G17D]"
  REPORTED: 2.36
- INPUT SEQUENCE: "SVICRSLPEGMGPGESGQPDPAC [P20D]"
  REPORTED: 4.12
- INPUT SEQUENCE: "SVICRSLPEGMGPGESTQPPPAC [G17T]"
  REPORTED: 1.61
- INPUT SEQUENCE: "SVICRSLPEGMGPGESGMPPPAC [Q18M]"
  REPORTED: 1.85
- INPUT SEQUENCE: "SVICRSLPEGMWPGESGQPPPAC [G12W]"
  REPORTED: 1.09
- INPUT SEQUENCE: "SCICRSLPEGMGPGESGQPPPAC [V2C]"
  REPORTED: 1.73
- INPUT SEQUENCE: "SVICHSLPEGMGPGESGQPPPAC [R5H]"
  REPORTED: 2.73
- INPUT SEQUENCE: "SVICRSLPEGMGKGESGQPPPAC [P13K]"
  REPORTED: 2.16
- INPUT SEQUENCE: "SVICRSLPEGMGPGESGQPPYAC [P21Y]"
  REPORTED: 2.59
- INPUT SEQUENCE: "SVICRSLPEGMGPGFSGQPPPAC [E15F]"
  REPORTED: 2.49
- INPUT SEQUENCE: "SVICRSLPEGMGPGEEGQPPPAC [S16E]"
  REPORTED: 1.81
- INPUT SEQUENCE: "SVICRSLPEGMGPGESGQPPPDC [A22D]"
  REPORTED: 5.53
- INPUT SEQUENCE: "SVICRSLPNGMGPGESGQPPPAC [E9N]"
  REPORTED: 1.93
- INPUT SEQUENCE: "SVICRKLPEGMGPGESGQPPPAC [S6K]"
  REPORTED: 2.28
- INPUT SEQUENCE: "SVYCRSLPEGMGPGESGQPPPAC [I3Y]"
  REPORTED: 1.62
- INPUT SEQUENCE: "SVICRSLPMGMGPGESGQPPPAC [E9M]"
  REPORTED: 1.55
- INPUT SEQUENCE: "SVICRSLPKGMGPGESGQPPPAC [E9K]"
  REPORTED: 1.7
- INPUT SEQUENCE: "SVICRSLPEGMGPGESGQPPPAQ [C23Q]"
  REPORTED: 3.8
- INPUT SEQUENCE: "SVTCRSLPEGMGPGESGQPPPAC [I3T]"
  REPORTED: 1.92
- INPUT SEQUENCE: "SVICRSLPEGMPPGESGQPPPAC [G12P]"
  REPORTED: 2.37
- INPUT SEQUENCE: "SVICRELPEGMGPGESGQPPPAC [S6E]"
  REPORTED: 3.01
- INPUT SEQUENCE: "SVICRILPEGMGPGESGQPPPAC [S6I]"
  REPORTED: 1.43
- INPUT SEQUENCE: "SVISRSLPEGMGPGESGQPPPAC [C4S]"
  REPORTED: 1.82
- INPUT SEQUENCE: "HVICRSLPEGMGPGESGQPPPAC [S1H]"
  REPORTED: 1.98
- INPUT SEQUENCE: "SVIWRSLPEGMGPGESGQPPPAC [C4W]"
  REPORTED: 2.62
- INPUT SEQUENCE: "SMICRSLPEGMGPGESGQPPPAC [V2M]"
  REPORTED: 2.57
- INPUT SEQUENCE: "SVICRSLTEGMGPGESGQPPPAC [P8T]"
  REPORTED: 1.67
- INPUT SEQUENCE: "IVICRSLPEGMGPGESGQPPPAC [S1I]"
  REPORTED: 3.78
- INPUT SEQUENCE: "SVICRSLPEGMGPEESGQPPPAC [G14E]"
  REPORTED: 1.53
